B1: library; numbered along this chain (parent)
chain: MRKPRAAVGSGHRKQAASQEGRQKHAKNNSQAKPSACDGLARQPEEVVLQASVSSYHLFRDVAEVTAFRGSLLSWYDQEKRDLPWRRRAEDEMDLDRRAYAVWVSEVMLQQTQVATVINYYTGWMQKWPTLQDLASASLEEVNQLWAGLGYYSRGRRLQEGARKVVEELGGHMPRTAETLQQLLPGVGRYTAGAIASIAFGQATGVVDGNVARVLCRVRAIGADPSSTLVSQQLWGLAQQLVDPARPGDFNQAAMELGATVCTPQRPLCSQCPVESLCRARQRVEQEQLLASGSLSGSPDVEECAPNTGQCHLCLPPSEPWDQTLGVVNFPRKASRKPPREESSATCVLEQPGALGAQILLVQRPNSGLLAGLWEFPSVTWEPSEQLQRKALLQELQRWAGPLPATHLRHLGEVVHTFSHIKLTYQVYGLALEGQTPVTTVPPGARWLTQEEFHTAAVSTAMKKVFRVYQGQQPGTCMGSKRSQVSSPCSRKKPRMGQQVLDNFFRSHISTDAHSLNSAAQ

Variants of: B1
TEST DESCRIPTION: 8OG:A repair function score (normalized; synonymous = 0, nonsense = -1) (normalized log-likelihood score); higher = more repair activity (WT-like);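 further: cells sorted at 72 h after reporter transfection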
APPLIED CONDITIONS: with 8OG:A DNA repair reporter (GFP) in HEK-293 MUTYH KO cells
Response key: YES means 8OG:A repair function score >= -0.05; NO means 8OG:A repair function score < -0.05.

{"columns": ["MUTANT NAME", "CATEGORY LABEL"],
 "data": [
  ["S226E", "YES"],
  ["E382R", "NO"],
  ["S54R", "YES"],
  ["Q473K", "YES"],
  ["A391G", "NO"],
  ["S292P", "YES"],
  ["A305F", "NO"],
  ["E178T", "YES"],
  ["R175W", "NO"],
  ["S384T", "YES"],
  ["L448Q", "NO"],
  ["D91Q", "NO"],
  ["H416Q", "YES"],
  ["I359M", "YES"],
  ["F504D", "YES"]
]}
